- study.system: human Cereblon WT GST-tagged protein (Homo sapiens, UniProt Q96SW2)
- Construct: purchased CISBIO 64BDCRBNPEH
- Sequence (Q96SW2 whole entry): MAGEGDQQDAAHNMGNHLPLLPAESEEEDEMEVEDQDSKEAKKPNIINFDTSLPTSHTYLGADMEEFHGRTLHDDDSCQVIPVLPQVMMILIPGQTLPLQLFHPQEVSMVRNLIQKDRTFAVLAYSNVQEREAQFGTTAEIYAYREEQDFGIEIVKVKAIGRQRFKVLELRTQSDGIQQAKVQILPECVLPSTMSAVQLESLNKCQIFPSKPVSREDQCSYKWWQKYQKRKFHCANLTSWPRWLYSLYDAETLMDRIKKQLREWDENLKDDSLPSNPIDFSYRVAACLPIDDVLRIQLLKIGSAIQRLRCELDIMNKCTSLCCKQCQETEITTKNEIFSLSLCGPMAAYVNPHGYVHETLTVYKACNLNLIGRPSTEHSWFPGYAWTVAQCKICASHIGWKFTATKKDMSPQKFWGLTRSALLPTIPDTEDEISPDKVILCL
- assay.name: CRBN-binding affinity, HTRF (CEREBLON BINDING kit)
- test.settings: read-out: Inhibition Rate at 2 µM (%)
readout: inhibition at 2 µM

Entry O=C1CCC(N2Cc3c(CN4CCN(c5ccnc(F)c5F)CC4)cccc3C2=S)C(=O)N1 (centres unmarked) , tested on human Cereblon WT GST-tagged protein (Homo sapiens, UniProt Q96SW2), has a reported inhibition at 2 µM of 80 to 100%

inhibition at 2 µM on human Cereblon WT GST-tagged protein (Homo sapiens, UniProt Q96SW2) for O=C1CCC(N2Cc3cc(CN4CCC(c5cccc6cnccc56)CC4)ccc3C2=S)C(=O)N1 (centres unmarked) is 80 to 100%

The value of inhibition at 2 µM recorded for O=C1CCC(N2Cc3c(CN4CCN(c5ncnc6sc7c(c56)CCC7)CC4)cccc3C2=S)C(=O)N1 (centres unmarked) when tested on human Cereblon WT GST-tagged protein (Homo sapiens, UniProt Q96SW2) reads 80 to 100%

The observed inhibition at 2 µM for CC1(C)CN(Cc2ccc3c(c2)CN(C2CCC(=O)NC2=O)C3=S)CCN1C(c1ccccc1)c1ccccc1 (centres unmarked) when tested with human Cereblon WT GST-tagged protein (Homo sapiens, UniProt Q96SW2) stands at 60 to 80%

Bench note, human Cereblon WT GST-tagged protein (Homo sapiens, UniProt Q96SW2): entry O=C1CCC(N2Cc3cc(CN4CCN(C(c5ccc(F)cc5)c5ccc(F)cc5)CC4)ccc3C2=S)C(=O)N1 (centres unmarked) , its inhibition at 2 µM = 60 to 80%

Form field inhibition at 2 µM for item O=C1CCC(N2Cc3c(CN4C[C@@H]5C[C@H]4CN5C(c4ccccc4)c4ccccc4)cccc3C2=S)C(=O)N1 (some centres unmarked) on human Cereblon WT GST-tagged protein (Homo sapiens, UniProt Q96SW2): 60 to 80%

Bench note, human Cereblon WT GST-tagged protein (Homo sapiens, UniProt Q96SW2): entry Cc1cc(N2CCN(Cc3ccc4c(c3)CN(C3CCC(=O)NC3=O)C4=S)CC2)cc(C)n1 (centres unmarked) , its inhibition at 2 µM = 80 to 100%

Lab entry: human Cereblon WT GST-tagged protein (Homo sapiens, UniProt Q96SW2) assay, compound O=C1CCC(N2Cc3cc(CN4CCN(c5ccc(Cl)nc5)CC4)ccc3C2=S)C(=O)N1 (centres unmarked) , inhibition at 2 µM = 80 to 100%

----------
Task for the reader: assign each of the following molecules its reported inhibition at 2 µM.
- study.system: human Cereblon WT GST-tagged protein (Homo sapiens, UniProt Q96SW2)
- Construct: purchased CISBIO 64BDCRBNPEH
- assay.name: CRBN-binding affinity, HTRF (CEREBLON BINDING kit)
- test.settings: read-out: Inhibition Rate at 2 µM (%)

For record O=C1CCC(N2Cc3c(CN4CCN(c5c[nH]c6ncccc56)CC4)cccc3C2=S)C(=O)N1 (centres unmarked) the listed inhibition at 2 µM is 80 to 100%

Item: Cc1ccc(N2CCN(Cc3cccc4c3CN(C3CCC(=O)NC3=O)C4=S)CC2)cc1 (centres unmarked) | inhibition at 2 µM: 53 to 60%

Looking up O=C1CCC(N2Cc3cc(CN4CCN(c5ncnc6sc(-c7ccccc7)cc56)CC4)ccc3C2=S)C(=O)N1 (centres unmarked) , I found its inhibition at 2 µM recorded as 80 to 100%

Entry O=C1CCC(N2Cc3c(CN4CCC(Nc5ccccc5-c5ccc(Cl)cc5)CC4)cccc3C2=S)C(=O)N1 (centres unmarked) ; inhibition at 2 µM = 60 to 80%

Form field inhibition at 2 µM, entry O=C1CCC(N2Cc3cc(CN4CCN(c5ncccc5C(F)(F)F)CC4)ccc3C2=S)C(=O)N1 (centres unmarked) : 80 to 100%

Entry O=C1CCC(N2Cc3cc(CN4CCC(c5ccnc(F)c5F)CC4)ccc3C2=S)C(=O)N1 (centres unmarked) , inhibition at 2 µM reported as 80 to 100%

So, O=C1CCC(N2Cc3cc(CN4CCN(c5ncnc(Cl)c5Cl)CC4)ccc3C2=S)C(=O)N1 (centres unmarked) ? Its inhibition at 2 µM was 80 to 100%

molecule O=C1CCC(N2Cc3cc(CN4CCC(c5ncnc6sc7c(c56)CCC7)CC4)ccc3C2=S)C(=O)N1 (centres unmarked) , inhibition at 2 µM observed: 80 to 100%

Reference source for all entries: patent EP4745135A1
